Form field: zone of inhibition at 4 µg/disc (one value per entry).
# Test system: Legionella pneumophila (ATCC 33153)
# Protocol Description: microbe, parasite or virus in culture
# Type: cell-based
# Setup Conditions: ATCC33153, 72 h, read-out: Zone of inhibition L.p.
Where a name gives a salt, the structure may show the parent alone.
Could you give me the number in mm? Just the number is fine.

Look over these answered cases.
* CN[C@@H]1[C@H](O)[C@H](NC)[C@H]2O[C@]3(O)[C@H](O[C@@H]2[C@H]1O)O[C@H](C)C[C@@]3(O)CNCc1ccco1 [compound 8, Trihydrochloride] | 41
* CN[C@@H]1[C@H](O)[C@H](NC)[C@H]2O[C@]3(O)[C@H](O[C@@H]2[C@H]1O)O[C@H](C)C[C@@]3(O)CNCCN1CCOCC1 | 22
* CN[C@@H]1[C@H](O)[C@H](NC)[C@H]2O[C@]3(O)[C@H](O[C@@H]2[C@H]1O)O[C@H](C)C[C@@]3(O)CNCCc1ccc(OC)cc1 [compound 53, Trihydrochloride] | 30
* CN[C@@H]1[C@H](O)[C@H](NC)[C@H]2O[C@]3(O)[C@H](O[C@@H]2[C@H]1O)O[C@H](C)C[C@@]3(O)CNCCc1ccccc1 [compound 6, Trihydrochloride] | 36

# next compound below
Recorded result, CN[C@@H]1[C@H](O)[C@H](NC)[C@H]2O[C@]3(O)[C@H](O[C@@H]2[C@H]1O)O[C@H](C)C[C@@]3(O)CNCc1ccc(Cl)cc1 [compound 18, Trihydrobromide] , zone of inhibition at 4 µg/disc: 21

====

# System: M. tuberculosis clinical isolates
# Protocol Description: microbe, parasite or virus in culture
# Assay type: cell-based
# Setup Conditions: Mycobacterium tuberculosis, H37RV, read-out: MIC H37Rv
Structures can show the parent of a compound that is named as a salt.
Endpoint Label: MIC (µg/mL)
Could you give me the number in µg/mL? Just the number is fine.

Look over these answered cases.
• CN[C@@H]1[C@H](O)[C@H](NC)C2O[C@]3(O)C(OC2[C@H]1O)O[C@H](C)C[C@@]3(O)CNCc1ccc(Cc2ccccc2)cc1 (some centres unmarked) = 100
• CN[C@@H]1[C@H](O)[C@H](NC)[C@H]2O[C@]3(O)[C@H](O[C@@H]2[C@H]1O)O[C@H](C)C[C@@]3(O)CNCc1cccc(C)n1 = 6.3
• CN[C@@H]1[C@H](O)[C@H](NC)C2O[C@]3(O)C(OC2[C@H]1O)O[C@H](C)C[C@@]3(O)CNCc1cccc(C(=O)OC)c1 (some centres unmarked) = 50
• CN[C@@H]1[C@H](O)[C@H](NC)[C@H]2O[C@]3(O)[C@H](O[C@@H]2[C@H]1O)O[C@H](C)C[C@@]3(O)CNCc1ccccc1 [compound 1, Trihydrochloride] = 25

# next molecule below
Recorded result, CN[C@@H]1[C@H](O)[C@H](NC)[C@H]2O[C@]3(O)[C@H](O[C@@H]2[C@H]1O)O[C@H](C)C[C@@]3(O)CNCc1ccncc1 , MIC: 200

====

# Test system: Enterococcus faecalis (ATCC 33186)
# Protocol Description: MIC determination, microbroth dilution
# Format: cell-based
# Setup Conditions: ATCC33186; Enterococcus faecalis (ATCC 33186); read-out: MIC E.f.
Structures can show the parent of a compound that is named as a salt.
Endpoint Label: MIC (µg/mL)
Could you give me the number in µg/mL? Just the number is fine.

* CN[C@@H]1[C@H](O)[C@H](NC)[C@H]2O[C@]3(O)[C@H](O[C@@H]2[C@H]1O)O[C@H](C)C[C@@]3(O)CNCc1ccco1 [compound 8, Trihydrochloride] | 50
* CN[C@@H]1[C@H](O)[C@H](NC)C2O[C@]3(O)C(OC2[C@H]1O)O[C@H](C)C[C@@]3(O)CNCCC(C)c1ccccc1 (stereo partly shown) | 25
* CN[C@@H]1[C@H](O)[C@H](NC)[C@H]2O[C@]3(O)[C@H](O[C@@H]2[C@H]1O)O[C@H](C)C[C@@]3(O)CNCc1ccccc1OC(F)(F)F [compound 10, Trihydrochloride] | 200

# next molecule below
Recorded result, CN[C@@H]1[C@H](O)[C@H](NC)[C@H]2O[C@]3(O)[C@H](O[C@@H]2[C@H]1O)O[C@H](C)C[C@@]3(O)CNCc1ccccn1 , MIC: 100
